- TARGET_OF_ASSAY: T1, MAGI1-3/6 (MBP fusion of the third of the six PDZ domains of MAGI1) (mouse, UniProt Q6RHR9-1 613-752)
- T1 construct: source: E. coli BL21 DE3, purified (amylose column, Superdex 75 gel filtration)
- TEST_METHOD_NOTES: SPR
- TEST_CONTEXT: both partners purified
Ends that are not written are not given here. * marks the point of attachment. Biotin = O=C1N[C@H]2[C@H](CS[C@H]2CCCCC(=O)*)N1
RESULT_TYPE: Kd (µM)

>  <BINDER>
Biotin-GSGAGHETIV (also called TMEM215 short; source: synthetic peptide (JPT Peptide Technologies)) [TMEM215_05 (short peptide of Transmembrane protein 215: GSGAG and the last five residues)]

>  <RESULT_TYPE>
Kd

>  <U>
µM

>  <REPORTED_MEASUREMENT>
116

$$$$
>  <BINDER>
Biotin-VKRNSKETVV (also called MARCH3 long; source: synthetic peptide (JPT Peptide Technologies)) [MARCH3_10 (long peptide of E3 ubiquitin-protein ligase MARCH3: the last ten residues)]

>  <RESULT_TYPE>
Kd

>  <U>
µM

>  <REPORTED_MEASUREMENT>
686

$$$$
>  <BINDER>
Biotin-QGRWDHETIV (also called TMEM215 long; source: synthetic peptide (JPT Peptide Technologies)) [TMEM215_10 (long peptide of Transmembrane protein 215: the last ten residues)]

>  <RESULT_TYPE>
Kd

>  <U>
µM

>  <REPORTED_MEASUREMENT>
67

$$$$
>  <BINDER>
Biotin-GSGAGVETVV (also called MAS short; source: synthetic peptide (JPT Peptide Technologies)) [MAS_05 (short peptide of Proto-oncogene Mas: GSGAG and the last five residues)]

>  <RESULT_TYPE>
Kd

>  <U>
µM

>  <REPORTED_MEASUREMENT>
90

$$$$
